assay: Competitive inhibition of Escherichia coli dUTPase
Reported Property: pKi
Quick note: pKi values are minus log10 of concentrations in mol/L.

QUERY: Please give measured pKi of the following entry: O=c1ccn([C@H]2C[C@H](O)[C@@H](COP(=O)(O)NP(=O)(O)OP(=O)(O)O)O2)c(=O)[nH]1
RESULT: 5.30

====

Target: Deoxyuridine 5'-triphosphate nucleotidohydrolase, mitochondrial (Homo sapiens)
Sequence (P33316 whole entry): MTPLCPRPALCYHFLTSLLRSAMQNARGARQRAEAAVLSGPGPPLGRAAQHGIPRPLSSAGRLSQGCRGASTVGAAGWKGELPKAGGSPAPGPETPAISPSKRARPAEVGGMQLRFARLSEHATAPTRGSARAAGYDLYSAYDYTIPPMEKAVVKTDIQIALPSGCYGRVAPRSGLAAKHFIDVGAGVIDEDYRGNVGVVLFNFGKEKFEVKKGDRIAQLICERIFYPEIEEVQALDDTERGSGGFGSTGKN
pIC50: −log10 of the molar value.
Reported Property: pIC50

QUERY: # return pIC50 for CC(C)(CO)NC(=O)CCCn1ccc(=O)[nH]c1=O , test system: Deoxyuridine 5'-triphosphate nucleotidohydrolase, mitochondrial (Homo sapiens)
RESULT: < 4.52

QUERY: Report pIC50 from Deoxyuridine 5'-triphosphate nucleotidohydrolase, mitochondrial (Homo sapiens) testing of O=C(CCCn1ccc(=O)[nH]c1=O)N1CCC[C@H]1C(c1ccccc1)c1ccccc1
RESULT: 6.82

QUERY: Write pIC50 of CC(C)(C)CC(C)(C)NC(=O)CCCn1ccc(=O)[nH]c1=O ; system used: Deoxyuridine 5'-triphosphate nucleotidohydrolase, mitochondrial (Homo sapiens)
RESULT: 4.52

QUERY: Tell me its pIC50 on Deoxyuridine 5'-triphosphate nucleotidohydrolase, mitochondrial (Homo sapiens): O=C(CCn1ccc(=O)[nH]c1=O)N(Cc1ccccc1)Cc1ccccc1
RESULT: < 4.52

QUERY: Write pIC50 of O=C(CCCn1ccc(=O)[nH]c1=O)N1CCC[C@H]1C(O)(c1ccccc1)c1ccccc1 ; system used: Deoxyuridine 5'-triphosphate nucleotidohydrolase, mitochondrial (Homo sapiens)
RESULT: 6.54

QUERY: Quote Deoxyuridine 5'-triphosphate nucleotidohydrolase, mitochondrial (Homo sapiens) pIC50 for entry O=C(CCCn1ccc(=O)[nH]c1=O)N1CCC[C@H]1C(O)(c1ccc(Cl)cc1)c1ccc(Cl)cc1 .
RESULT: < 6.00

QUERY: # return pIC50 for O=C(CCn1ccc(=O)[nH]c1=O)N1CCC(Cc2ccccc2)CC1 , test system: Deoxyuridine 5'-triphosphate nucleotidohydrolase, mitochondrial (Homo sapiens)
RESULT: < 4.52

QUERY: Provide pIC50, recorded with Deoxyuridine 5'-triphosphate nucleotidohydrolase, mitochondrial (Homo sapiens), of O=C(CCCn1ccc(=O)[nH]c1=O)N1CCC[C@H]1C(O)(c1ccc(F)cc1)c1ccc(F)cc1
RESULT: 6.22

QUERY: Fetch value of pIC50 on Deoxyuridine 5'-triphosphate nucleotidohydrolase, mitochondrial (Homo sapiens) for COc1cccc(C(O)(c2cccc(OC)c2)[C@@H]2CCCN2C(=O)CCCn2ccc(=O)[nH]c2=O)c1 .
RESULT: < 6.00

QUERY: Report value only: pIC50, Deoxyuridine 5'-triphosphate nucleotidohydrolase, mitochondrial (Homo sapiens), CCC(CC)(CC)NC(=O)CCCn1ccc(=O)[nH]c1=O
RESULT: < 4.52

QUERY: Write pIC50 of COc1ccccc1C(O)(c1ccccc1OC)[C@H]1CCCN1S(=O)(=O)CCCn1ccc(=O)[nH]c1=O ; system used: Deoxyuridine 5'-triphosphate nucleotidohydrolase, mitochondrial (Homo sapiens)
RESULT: < 6.00

QUERY: Find pIC50 for CC(C)(C)CC(C)(C)NC(=O)CCn1ccc(=O)[nH]c1=O on Deoxyuridine 5'-triphosphate nucleotidohydrolase, mitochondrial (Homo sapiens) and write it down.
RESULT: < 4.52

QUERY: Look up and report pIC50, with Deoxyuridine 5'-triphosphate nucleotidohydrolase, mitochondrial (Homo sapiens) as system, for CC(C)(NC(=O)CCn1ccc(=O)[nH]c1=O)C(O)(c1ccccc1)c1ccccc1
RESULT: 5.14

QUERY: // fetch pIC50 for COc1ccccc1C(O)(c1ccccc1OC)[C@@H]1CCCN1C(=O)CCCn1ccc(=O)[nH]c1=O ; system: Deoxyuridine 5'-triphosphate nucleotidohydrolase, mitochondrial (Homo sapiens)
RESULT: < 6.00

Provenance of the data: ChEMBL document CHEMBL2046335
